Answer each item with its documented pEC50.
- ASSAY_TARGET: S. pyogenes SKKanGAS, kanamycin survival, BacTiterGlo, 6 h
- ASSAY_EXPLANATION: S. pyogenes SKKanGAS kanamycin growth inhibitors – SKKanGAS strain, luminescence, dose confirmation, streptokinase promoter inhibitor project, dose response (AID 1902);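 further: lower survival reflects blocked streptokinase promoter driving kanamycin resistance gene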
pEC50: −log10 of the molar value.

Measured pEC50, `O=C(NNC(=S)NC(=O)c1ccccc1)c1cccc([N+](=O)[O-])c1` : 5.24

The measured pEC50 associated with `Oc1ccccc1N=Nc1ccccc1O` reads 6.02

Summary for this compound, `CC1(C)S[C@@H]2[C@H](NC(=O)Cc3ccccc3)C(=O)N2[C@H]1C(=O)O` : pEC50 is > 7.22

Reported pEC50 ( `CC(C)=CCc1c(-c2ccc(O)cc2O)oc2c3c(cc(O)c2c1=O)OC(C)(C)C=C3` ) = 5.91

The compound identified as `COc1cccc(N=Nc2c(N)[nH]n3c(=O)cc(-c4ccccc4)nc23)c1` registered its pEC50 at 5.75
